- Test system: Acinetobacter baumannii ATCC 17978
- runDescription: Antimicrobial susceptibility testing: 90% growth inhibitory concentration (IC90) determination
- Format: cell-based
- assayContext: Acinetobacter baumannii, ATCC17978, 16 h, 90% growth inhibitory concentration; Acinetobacter baumannii ATCC17978; Iso-Sensitest broth, OD 600 nm over 16h; read-out: ATCC17978 IC90
Where a name gives a salt, the structure may show the parent alone.
Form field: IC90 (one value per entry).
readoutType: IC90 (nM)

                                    compound  readouttype  experimentalresult
 0  CCc1cc(Nc2nccn3c(-c4ccc(OC)c(F)c4F)cnc23)ccc1C(=O)NCCCNC(=O)CN [Example 103, hydrochloride]         IC90                  80
 1  COc1ccc(-c2cnc3c(Nc4ccc(C(=O)N(C)CCN(C)C)c(C)c4)nccn23)cc1         IC90                2200
 2  COc1ccc(-c2cnc3c(Nc4ccc(C(=O)NCCNC(=O)[C@@H]5CCNC[C@@H]5O)c(C)c4)nccn23)c(F)c1F         IC90                 940
 3  CC[C@@]1(O)CN[C@H](C(=O)NCCNC(=O)c2ccc(Nc3nccn4c(-c5ccc(OCC#N)c(F)c5F)cnc34)cc2C)C1         IC90                 100
 4  CCc1cc(Nc2nccn3c(-c4ccc(OC)c(F)c4F)cnc23)ccc1C(=O)NC[C@H](C)NC(=O)[C@@H](N)CCCNC(=N)N [Example 123, formate]         IC90                 410
 5  N#CCOc1ccc(-c2cnc3c(Nc4ccc(C(=O)NCCCCCN)c(Cl)c4)nccn23)c(F)c1F         IC90                  23
 6  COc1ccc(-c2cnc3c(Nc4ccc(C(=O)N(C)CC(=O)N5CCC(CN(C)C)C5)c(C)c4)nccn23)cc1F (centres unmarked)         IC90                 840
 7  C=Cc1cc(Nc2nccn3c(-c4ccc(OC(F)F)cc4)cnc23)ccc1C(=O)NCCN1CCNCC1         IC90                1800
 8  CCc1cc(Nc2nccn3c(-c4ccc(OCC#N)c(F)c4F)cnc23)ccc1C(=O)NCCNC(=O)CN [Example 136, formate]         IC90                  60
 9  CCc1cc(Nc2nccn3c(-c4ccc(OC)c(F)c4F)cnc23)ccc1C(=O)NCC1CCN(CC(=O)O)CC1         IC90                 270
10  COc1ccc(-c2cnc3c(Nc4ccc(C(=O)NCC5CCSCC5)c(Cl)c4)nccn23)c(F)c1F         IC90                 890
11  N#CCOc1ccc(-c2cnc3c(Nc4ccc(C(=O)NCCCc5ccncc5)c(Cl)c4)nccn23)c(F)c1F         IC90                 170
12  COc1ccc(-c2cnc3c(Nc4ccc(C(=O)NC[C@@H](O)[C@@H](O)[C@H](O)[C@H](O)CO)c(C)c4)nccn23)cc1F         IC90                3000
13  COc1ccc(-c2cnc3c(Nc4ccc(C(=O)NCC5CCCOC5)c(C)c4)nccn23)cc1F (centres unmarked)         IC90                1000

====

- System: Acinetobacter baumannii ATCC 17978
- runDescription: Antimicrobial susceptibility testing: 90% growth inhibitory concentration (IC90) determination
- Format: cell-based
- assayContext: Acinetobacter baumannii, ATCC17978, 16 h, 90% growth inhibitory concentration; Acinetobacter baumannii ATCC17978; Iso-Sensitest broth, OD 600 nm over 16h; read-out: ATCC17978 IC90
Structures can show the parent of a compound that is named as a salt.
Overview of recorded IC90 for various compounds
readoutType: IC90 (nM)

In [3]: df
Out[3]:
                                    compound  experimentalresult
 0  CCc1cc(Nc2nccn3c(-c4ccc(Oc5ccc(OC)cn5)c(F)c4F)cnc23)ccc1C(=O)NCCNC(=O)[C@H](N)CCNC(=N)N [Example 450]                 560
 1  CCc1cc(Nc2nccn3c(-c4ccc(OC(F)F)cc4)cnc23)ccc1C(=O)NCCN1CCNCC1 [Example 212]                 640
 2  COc1ccc(-c2cnc3c(Nc4ccc(C(=O)NCCCNC(=O)[C@@H]5C[C@@H](O)CN5)c(C)c4)nccn23)c(F)c1F [Example 358]                  50
 3  Cc1cc(Nc2nccn3c(-c4ccc(OC(F)F)cc4)cnc23)ccc1C(=O)NCCCCN1CCOCC1 [Example 197]                 400
 4  CCc1cc(Nc2nccn3c(-c4ccc(OC)c(F)c4F)cnc23)ccc1C(=O)NC[C@@H]1CNC[C@@H]1O [Example 531, hydrochloride]                 150
 5  CCc1cc(Nc2nccn3c(-c4ccc(OC(F)F)c(F)c4F)cnc23)ccc1C(=O)NCCNC(=O)[C@H](N)CCCNC(=N)N [Example 132, formate]                 230
 6  CCc1cc(Nc2nccn3c(-c4ccc(OC)c(F)c4F)cnc23)ccc1C(=O)NCCCNC(=O)[C@@H](N)CCNC(=N)N [Example 367]                 100
 7  CCc1cc(Nc2nccn3c(-c4ccc(OC)c(F)c4F)cnc23)ccc1C(=O)NCCCNC(=O)NCCCN [Example 120]                 140
 8  CCc1cc(Nc2nccn3c(-c4ccc(Oc5ccccn5)c(F)c4F)cnc23)ccc1C(=O)NCCNC(=O)CCN [Example 421]                 440
 9  CNC(=O)c1ccc(Nc2nccn3c(-c4ccc(OC(F)F)cc4)cnc23)cc1COCCO [Example 168]                2000
10  CCc1cc(Nc2nccn3c(-c4ccc(OC)c(F)c4F)cnc23)ccc1C(=O)NCCN1CCN(CCCC(=O)O)CC1 [Example 444]                 320
11  CCc1cc(Nc2nccn3c(-c4ccc(OC)c(F)c4F)cnc23)ccc1C(=O)NCC(=O)NCCNC [Example 428, formic acid]                 410
12  O=C(NCC1CCNCC1)c1ccc(Nc2nccn3c(-c4ccc(OC(F)F)c(F)c4F)cnc23)cc1Cl [Example 43]                 220
13  Cc1cc(Nc2nccn3c(-c4ccc(OC(F)F)cc4)cnc23)ccc1C(=O)N(C)CCCSc1nnnn1C [Example 178]                1000
14  Cc1cc(Nc2nccn3c(-c4ccc(OC(F)F)cc4)cnc23)ccc1C(=O)N(C)CCC1CCN(CCCC(=O)O)CC1 [Example 443, hydrochloride]                 760
15  CCc1cc(Nc2nccn3c(-c4ccc(OC)c(F)c4F)cnc23)ccc1C(=O)N[C@@H](CC)CN [Example 489, formic acid]                 500
16  CCc1cc(Nc2nccn3c(-c4ccc(OC)c(F)c4F)cnc23)ccc1C(=O)NCC1(O)CCNC1 (stereo not shown) [Example 528, hydrochloride]                 250
17  CCc1cc(Nc2nccn3c(-c4ccc(OC)c(F)c4F)cnc23)ccc1C(=O)NCCN1CCNCC1 [Example 323]                  60
18  CCc1cc(Nc2nccn3c(-c4ccc(OC)c(F)c4F)cnc23)ccc1C(=O)NCCCNC(=O)C1CNC(=N)N1 (stereo not shown) [Example 356]                  50
19  COc1ccc(-c2cnc3c(Nc4ccc(C(=O)NCC5CNCCN5)c(C)c4)nccn23)cc1F (stereo not shown) [Example 246]                2200
20  COc1ccc(-c2cnc3c(Nc4cc(F)c(C(=O)NCCCN)c(Cl)c4)nccn23)c(F)c1F [Example 436]                 650
21  COc1ccc(-c2cnc3c(Nc4ccc(C(=O)NCC5CCN(C(=N)N)CC5)c(C)c4)nccn23)cc1Cl [Example 82]                 270
22  CCc1cc(Nc2nccn3c(-c4ccc(OC)c(F)c4F)cnc23)ccc1C(=O)NCC(O)CNC(=O)CN (stereo not shown) [Example 374]                 190
23  Cc1cc(Nc2nccn3c(-c4ccc(Cl)c(F)c4F)cnc23)ccc1C(=O)NCC1CCN(C)CC1 [Example 240]                1100
24  CCc1cc(Nc2nccn3c(-c4ccc(Oc5ccccn5)c(F)c4F)cnc23)ccc1C(=O)N(C)C [Example 471]                 660
25  CCc1cc(Nc2nccn3c(-c4ccc(OC)c(F)c4F)cnc23)ccc1C(=O)NCc1cnn(C)c1 [Example 555]                 150
26  CCc1cc(Nc2nccn3c(-c4ccc(OC)c(F)c4F)cnc23)ccc1C(=O)NCC1CCN(C(=O)C2CCNCC2)CC1 [Example 546, trifluoroacetate]                  70
27  CCc1cc(Nc2nccn3c(-c4ccc(OCC#N)c(F)c4F)cnc23)ccc1C(=O)NCCNC(=O)CC(O)CN (stereo not shown) [Example 142, formate]                 130

Just for reference, patent US20230012368A1 is where these values come from.
